We begin with a simple list: items and their reported Aster-B (FP) inhibition.
Molecular target: Aster-B (Homo sapiens)
Construct: -B(364-552); GST (PreScission-cleavable) (N, cleaved yes); made in house; host or cells: E. coli OverExpress C41
Sequence (Q3KR37 364-552): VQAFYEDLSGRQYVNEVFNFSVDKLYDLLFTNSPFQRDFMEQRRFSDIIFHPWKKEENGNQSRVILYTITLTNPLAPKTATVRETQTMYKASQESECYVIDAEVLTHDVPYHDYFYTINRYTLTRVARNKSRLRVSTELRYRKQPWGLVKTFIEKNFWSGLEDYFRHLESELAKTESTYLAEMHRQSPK
Test: Fluorescence polarisation (FP) competition with NBD-cholesterol, Aster-B
Format: binding
Details: single dose, Dose = 10 µM

{"compound": "Cc1c2c(nc3cc(Br)ccc13)[C@@]1(C)CC[C@@H](O)C[C@H]1CC2", "system_name": "Aster-B (Homo sapiens)", "Aster-B (FP) inhibition / %": 9}
{"compound": "C[C@]12CC[C@@H](O)C[C@H]1CCC[C@]21Nc2ccccc2-n2cccc21", "system_name": "Aster-B (Homo sapiens)", "Aster-B (FP) inhibition / %": -1.67}
{"compound": "C[C@]12CC[C@@H](O)C[C@H]1CCc1nc3cc(F)c(F)cc3nc12", "system_name": "Aster-B (Homo sapiens)", "Aster-B (FP) inhibition / %": 4}
{"compound": "CC(C)Oc1ccc(C(=O)Nc2nc3c(s2)CN(C(=O)OC(C)(C)C)CC3)cc1 [Autogramin-2, reference compound]", "system_name": "Aster-B (Homo sapiens)", "Aster-B (FP) inhibition / %": 5}
{"compound": "C[C@]12CC[C@@H](O)C[C@H]1CCc1c2[nH]c2ccc(F)cc12 [Compound 10d]", "system_name": "Aster-B (Homo sapiens)", "Aster-B (FP) inhibition / %": 0.833}
{"compound": "CC12CCC3CC1CCC21C(=Nc2ccc(N4CCOCC4)cc21)O3 (single isomer, unassigned; (-)) [(−)-19a]", "system_name": "Aster-B (Homo sapiens)", "Aster-B (FP) inhibition / %": 7}
{"compound": "CCCCCN(c1ccc2c(c1)[C@@]13CC[C@@H]4C[C@@H](CC[C@@]41C)OC3=N2)c1ccc2c(c1)[C@@]13CC[C@@H]4C[C@@H](CC[C@@]41C)OC3=N2 [Compound 20b]", "system_name": "Aster-B (Homo sapiens)", "Aster-B (FP) inhibition / %": 21}
{"compound": "C[C@]12CC[C@@H](O)C[C@H]1CCc1c2[nH]c2ccccc12 [Compound 10a]", "system_name": "Aster-B (Homo sapiens)", "Aster-B (FP) inhibition / %": 7.5}
{"compound": "C[C@]12CC[C@@H](O)C[C@H]1CCc1nc3cc(Br)c(Br)cc3nc12", "system_name": "Aster-B (Homo sapiens)", "Aster-B (FP) inhibition / %": 12}
